# target entity: UniProt P23975
# Sequence (P23975 whole entry): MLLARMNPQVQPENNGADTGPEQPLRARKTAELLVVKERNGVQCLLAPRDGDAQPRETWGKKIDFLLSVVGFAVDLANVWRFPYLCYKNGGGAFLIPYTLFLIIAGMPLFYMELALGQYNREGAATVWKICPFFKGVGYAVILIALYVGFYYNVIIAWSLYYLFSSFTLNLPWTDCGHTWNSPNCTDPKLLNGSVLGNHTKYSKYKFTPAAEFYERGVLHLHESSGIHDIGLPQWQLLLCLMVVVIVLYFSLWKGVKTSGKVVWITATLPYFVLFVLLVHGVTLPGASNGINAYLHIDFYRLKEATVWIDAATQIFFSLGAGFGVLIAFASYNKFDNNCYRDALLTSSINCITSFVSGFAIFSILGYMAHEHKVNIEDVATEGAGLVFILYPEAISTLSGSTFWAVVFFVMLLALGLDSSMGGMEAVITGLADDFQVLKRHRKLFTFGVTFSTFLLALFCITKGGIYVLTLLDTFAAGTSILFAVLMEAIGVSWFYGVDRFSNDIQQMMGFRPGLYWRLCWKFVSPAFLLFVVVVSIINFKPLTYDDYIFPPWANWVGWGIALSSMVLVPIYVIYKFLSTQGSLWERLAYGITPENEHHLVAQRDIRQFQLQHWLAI
outcome measure: pKd
Reminder that pKd means the negative base-10 logarithm of the concentration expressed in mol/L.

*Q* Quick check: pKd of COC(=O)[C@H]1[C@@H](c2ccc(F)cc2)C[C@@H]2CC[C@H]1N2C ?
*A* 7.15

Taken from paper PMC7248194.
